test system: LOX IMVI melanoma; test: NCI tumour cell line growth inhibition, 48 h
Measured TGI, listed per entry for reference.
Write the answer as a number in µM, unit excluded.

Form field TGI, entry CC(=O)OCC1OC(n2cnc3c(I)nc(I)nc32)C(OC(C)=O)C1OC(C)=O (stereo not given) : 29.4

Noted for C[C@@H](Oc1cc(-n2cnc3ccc(OCC4CCN(C)CC4)cc32)sc1C(N)=O)c1ccccc1C(F)(F)F : its TGI reads 3.27

====

test system: K-562 leukemia; assay: NCI tumour cell line growth inhibition, 48 h; in the data active = GI50 below about 0.43 µM; inactive = the rest
Write down the outcome that applies. Available outcomes: true (1) (active), false (0) (inactive)

Some entries whose results are on file:
> print(dat)
                                   compound  assigned.category
1  COc1cc2nc(-c3ccc(Cl)cc3)cc(OCCCN3CCC(O)CC3)c2cc1OC          false (0)
2  COc1cc2c(cc1OCCCN1CCN(CCCOc3cc4c(cc3OC)C(=O)C3CCC[C@H]3C=N4)CC1)N=C[C@@H]1CCCC1C2=O (stereo not given in full)          false (0)
3  CCN(CC)c1ccc(/C=C/C2=[N+](C)c3ccccc3C2(C)C)cc1          false (0)
4  COc1cccc(C2C3=C(COC3=O)N(CCO)c3cc4c(cc32)CCC4)c1 (stereo not given)           true (1)

Per the records of this test, what outcome belongs to O=C(O)Cc1ccccc1 ?
false (0)

For COc1cc(-c2cn(-c3ccc(Cl)cc3)c(=O)n2-c2ccccc2)cc(OC)c1OC , which call appears in the assay record?
false (0)

Called result for CC/C(=C(/CC)c1ccc(OP(=O)([O-])[O-])cc1)c1ccc(OP(=O)([O-])[O-])cc1.N.N.N.N.[Pt+4].[Pt+4]
false (0)

====

# key: entry, value: TGI
test system: A549 NSCLC; experiment: NCI tumour cell line growth inhibition, 48 h

Solved cases below.
> print(dat)
                                   compound  endpoint.value
1  O=C1c2ccccc2-c2ccc(N(Cc3ccc(Br)cc3)Cc3ccc(Br)cc3)cc21        > 100 µM
2    COc1ccc(C(=O)Nc2ccccc2)cc1[N+](=O)[O-]        > 100 µM
3  C[C@@H](Oc1cc(-n2cnc3ccc(OCC4CCN(C)CC4)cc32)sc1C(N)=O)c1ccccc1C(F)(F)F          2.7 µM
4  Nc1nccc(C#Cc2cncnc2Nc2ccc(OCc3cccc(F)c3)c(Cl)c2)n1       > 15.6 µM
5  CCOc1ccc(NC(=O)/C(=C/c2ccccc2)C(C)=O)cc1         60.8 µM

Entry [N-]=[N+]=NC1=C(N=[N+]=[N-])c2cccc3cccc(c23)C1=O , TGI reported as > 100 µM

====

Measured TGI, listed per entry.
tested on: NCI-H522 lung; test: NCI tumour cell line growth inhibition, 48 h

> print(dat)
                                   compound  endpoint.value
1           O=C(/C=C/c1cccnc1)/C=C/c1cccnc1         4.69 µM
2  O=C1c2ccccc2-c2ccc(N(Cc3ccc(Br)cc3)Cc3ccc(Br)cc3)cc21        > 100 µM
3                     c1ccc2c(c1)SCCCSCCCS2        > 100 µM
4        COc1ccc(C=O)c(N(C)C(=O)C(C)(C)C)c1        > 100 µM
5  COC(=O)C1(Cc2ccccc2C)Cc2ccc(C)cc2C1=O (stereo unspecified)         65.9 µM

// recorded TGI for CCCN=C1S/C(=C/c2ccc(OC)c(OC)c2)C(=O)N1c1ccccc1 : > 100 µM

====

system: OVCAR-3 ovarian; assay: NCI tumour cell line growth inhibition, 48 h
OBSERVATION TYPE: TGI

// below: answered molecules
MOLECULE	TGI
COC(=O)/C=C1/OC(c2ccccc2)=CC1=O	39.4 µM
COc1ccc(N=C/C=C/C(=C/COC(C)=O)OC(C)=O)cc1	> 100 µM
Nc1nc(Cl)c(N)c(NCC2(CO)CC(O)C2)n1 (configuration not stated)	> 100 µM
COc1ccc2[nH]c3c(c2c1)CCc1ccccc1-3	> 100 µM
ClCc1nc2cc(Cl)ccc2o1	4.07 µM

Now turn to the next molecule.
TGI measured on O=C1/C(=C\c2ccccc2)CN(C(=O)c2ccccc2F)C/C1=C\c1ccccc1 = 5.35 µM

====

system: DMS 273 small cell lung; assay: NCI tumour cell line growth inhibition, 48 h
OBSERVATION TYPE: TGI (µM)
Kindly provide the numeric value in µM only, without the unit symbol.

> print(dat)
                                   compound  observation.type  endpoint.value
1          O=C1/C(=C/c2ccccc2Cl)COc2ccccc21               TGI            31.6
2  NC(N)=NCCCS(=O)(=O)Nc1ccc(Nc2c3ccccc3nc3cc([N+](=O)[O-])ccc23)cc1               TGI            37.2
3  CN(C)CC1CCCC(CN(C)C)C1=O (stereo not given)               TGI            26.8

We next turn to a different compound, shown below.
# compound COC1C2c3ccccc3C(C#N)(Cc3ccc4c(c32)OCO4)N1C(=O)c1ccccc1 (stereo not given) ; its TGI = 98.3

====

test system: SW-620 colon; assay: NCI tumour cell line growth inhibition, 48 h
Catalogue of TGI values

Please review the entries below; each comes with its answer.
> print(dat)
                                   compound  endpoint.value
1  Cc1cc(C)c2c(c1C)CN1CN2Cc2c(C)c(C)cc(C)c21        > 100 µM
2  CCOC(=O)CC(=O)Nc1c(C(=O)OCC)sc2nc(SC)nc(Nc3ccc(OC)c(OC)c3)c12        > 100 µM
3  O=S(=O)(Nc1ccc2ccc3cccc4ccc1c2c34)c1ccccc1        > 100 µM
4  OCC1OC(NC(=S)NCSCCC(F)(F)C(F)(F)C(F)(F)C(F)(F)C(F)(F)C(F)(F)F)C(O)C(O)C1O (stereo not drawn)        > 100 µM
5  N/C(=N/O)c1cn(C2OC(CO)C(O)C2O)c2ncnc(NO)c12 (stereo not drawn)       > 46.1 µM

Please fill in: TGI reported for NCCCNCCCNc1nc2ccccc2c2[nH]c3ccccc3c12 = 1.64 µM

Memo: O=C1/C(=C\c2ccccc2)CN(C(=O)c2ccccc2F)C/C1=C\c1ccccc1 , reported TGI: 3.48 µM

N#Cc1c(-c2ccccc2)cc(Nc2ccc(F)cc2)n2c1nc1ccccc12 yielded TGI of > 100 µM

Entry C[C@H]1ON2CCC[C@@H]2[C@@H]1C(=O)N1C2CC3CCC2(CS1(=O)=O)C3(C)C (stereo partly drawn) , TGI reported as > 100 µM

The compound COc1cc(/C=C2\N=C(c3ccccc3)N(/N=C/c3cc4cc(C)ccc4nc3Cl)C2=O)ccc1O showed TGI equal to > 100 µM

Just so you know, measured TGI for O=C(O)Cc1ccccc1 came out at > 2000 µM

Lab note: c1ccc(COc2ccc(Nc3ncnc4ccc(-c5ccco5)cc34)cc2)cc1 gave TGI of 22.7 µM

Lab note: Clc1ccc(C2=NN(c3ccccc3)C3c4cc(Br)ccc4OCC23)cc1 (stereo not drawn) gave TGI of > 100 µM

====

tested on: UACC-257 melanoma; assay: NCI tumour cell line growth inhibition, 48 h
OBSERVATION TYPE: TGI

response.value for C=CCSC1=N/C(=C\c2ccco2)C(=O)N1CC=C (field: TGI) = > 100 µM

// sample Cc1ccc2c(c1)/C(=N\N=C/c1cn(C(C)C)c3ccccc13)C(=O)N2 , its TGI was > 100 µM

# compound O=c1[nH]nc(Cc2ccc(Cl)cc2)n1Nc1ccccc1 ; its TGI = > 100 µM

So, CCOC(=O)c1cc(NC(=O)c2ccccc2)c(=O)n2c(cc3c(Cl)cccc32)c1O ? Its TGI was > 100 µM

Data point: O=C1c2cccnc2-c2nc(-c3ccccc3)cc3c2c1nc1ccccc13 ; TGI = 8.08 µM

====

test system: SNB-19 CNS; assay: NCI tumour cell line growth inhibition, 48 h
Where a SMILES comes first, the peptide text is derived from it. The star is where a group is joined. Cbz = O=C(OCc1ccccc1)*; Boc = CC(C)(C)OC(=O)*; OBn = c1ccc(CO*)cc1
// TGI lookup, one value per entry

Take a look at these entries with their results.
MOLECULE	ENDPOINT VALUE
O=C(O)Cc1ccccc1	> 2000 µM
CC1=NN(c2ccccc2Cl)C2(C1)SCC(=O)N2c1nc2ccccc2s1 (stereo not given)	> 100 µM
O=C1c2ccccc2-c2ccc(N(Cc3ccc(Br)cc3)Cc3ccc(Br)cc3)cc21	> 100 µM
Cc1ccc(C)c(NC(=O)CCC(=O)CC(=O)C(C)(C)C)c1	> 100 µM

# evaluate next
Reported TGI for COC(=O)C(CCCCNC(=O)OCc1ccccc1)NC(=O)C(CCC(=O)OCc1ccccc1)NC(=O)OC(C)(C)C (stereo not given) (Boc-Glu(OBn)-Lys(Cbz)-OMe; configuration not given here) was > 100 µM
